- Tested on: Stapholococcus aureus ATCC 25923
- PROTOCOL_TEXT: Antimicrobial assay I, modified protocol (tryptic soy broth), MBC
- EXPERIMENTAL_CONDITIONS: minimum bactericidal concentration, Table 4
No end group written: not given here.
EXPERIMENTAL_ENDPOINT: MBC S. aur A.25923

1) FAFGKGIGKIGKKGL-NH2 [compound 138]: INACT
2) FAKIIAKIAKKI-NH2 [compound 143]: INACT
3) FAKLWAKLAFGKGIGKVGKKLL-NH2 [compound 135]: INACT
4) KWKLAKKALALL-NH2 [compound 142]: INACT
5) FALALKALKKLKKALKKAL-OH [27B]: >40 µg/mL

Lab note: measured MBC S. aur A.25923 of FAKGVGKVGKKAL-NH2 [compound 137] was INACT

Lab note: measured MBC S. aur A.25923 of VAKLLAKLAKKVL-NH2 [compound 154] was >250 µg/mL

Lab note: measured MBC S. aur A.25923 of FAKLWAKLAKKL-NH2 [compound 136] was INACT

Lab note: measured MBC S. aur A.25923 of FAKLLFKALKKAL-NH2 [compound 112] was INACT

Lab note: measured MBC S. aur A.25923 of FAKKLAKKLAKLL-NH2 [compound 75] was >55 µg/mL

Lab note: measured MBC S. aur A.25923 of FAKLLAKLAKKIL-NH2 [compound 125] was INACT

Lab note: measured MBC S. aur A.25923 of FAKLFAKLAKKFAL-NH2 [compound 121] was INACT

Lab note: measured MBC S. aur A.25923 of FAKLFAKAFKKAL-NH2 [compound 117] was INACT

Lab note: measured MBC S. aur A.25923 of FAFAKIIAKIAKKII-NH2 [compound 140] was INACT
